Source of measurements: patent EP4477653A1

Target: human recombinant A3AR (expressed in HEK-293 cells) (Homo sapiens, UniProt P0DMS8)
Construct: host or cells: HEK-293 cells
Sequence (P0DMS8 whole entry): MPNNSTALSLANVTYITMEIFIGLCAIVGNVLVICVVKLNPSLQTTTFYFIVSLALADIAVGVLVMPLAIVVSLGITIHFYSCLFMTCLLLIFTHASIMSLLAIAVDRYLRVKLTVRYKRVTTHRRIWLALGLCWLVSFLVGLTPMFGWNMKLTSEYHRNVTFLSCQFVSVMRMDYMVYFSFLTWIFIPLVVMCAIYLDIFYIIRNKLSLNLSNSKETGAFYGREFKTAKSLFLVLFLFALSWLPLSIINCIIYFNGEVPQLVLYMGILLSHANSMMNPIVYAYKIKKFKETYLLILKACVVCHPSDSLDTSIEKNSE
Test: Adenosine receptors antagonism assay (Eurofins), [125I]-AB-MECA radioligand competition
Assay type: binding
Settings: [125I]-AB-MECA 0.15 nM, r.t., 120 min; IC50 from dose-response curves; read-out: Potency Class A3AR
PROPERTY_MEASURED: IC50

Lab note: measured IC50 of "CC(C)c1nnc2c(NCc3ccccc3)cc(N3CCOCC3)nn12" was 100 to 1000 nM

Lab note: measured IC50 of "CCCCNc1cc(NCc2ccccn2)c2nnc(C3CC3)n2n1" was 1 to 10 nM

Lab note: measured IC50 of "CCC(CC)Nc1cc(Nc2cncnc2)c2nnc(C(C)C)n2n1" was < 1 nM

Lab note: measured IC50 of "CCC(CC)CNc1cc(NCc2ccccn2)c2nnc(C3CC3)n2n1" was 1 to 10 nM

Lab note: measured IC50 of "CC(C)c1nnc2c(NCc3ccccc3)cc(NCCC(N)=O)nn12" was 100 to 1000 nM

Lab note: measured IC50 of "CC[C@H](CO)Nc1nn2c(C(C)C)nnc2c(NCc2ccccc2)c1C" was 100 to 1000 nM

Lab note: measured IC50 of "COCCNc1cc(NCc2ccccc2)c2nnc(C(C)C)n2n1" was 100 to 1000 nM

Lab note: measured IC50 of "CCC(CC)Nc1cc(NCCc2ccncc2)c2nnc(C(C)C)n2n1" was 1 to 10 nM

Lab note: measured IC50 of "CC(C)CNc1cc(NCc2ccccn2)c2nnc(C3CC3)n2n1" was 10 to 100 nM

Lab note: measured IC50 of "CC(C)c1nnc2c(NCc3ccccn3)cc(NC3CCC(F)(F)CC3)nn12" was 10 to 100 nM

Lab note: measured IC50 of "CCC(CC)Nc1cc(NCc2ccccc2N)c2nnc(C(C)C)n2n1" was 10 to 100 nM

Lab note: measured IC50 of "CCC(CC)Nc1cc(NCc2ccccn2)c2nncn2n1" was 100 to 1000 nM

Lab note: measured IC50 of "CC[C@H](CO)Nc1cc(N[C@H](CC)CO)c2nnc(C(C)C)n2n1" was 100 to 1000 nM

Lab note: measured IC50 of "CCC(CC)Nc1cc(Nc2cccnn2)c2nnc(C3CC3)n2n1" was < 1 nM

Lab note: measured IC50 of "CCC(CC)Nc1cc(Nc2cccc(OC)n2)c2nnc(C(C)C)n2n1" was < 1 nM

Lab note: measured IC50 of "CC[C@@H](CO)Nc1cc(NCc2ccc(-c3ccccn3)cc2)c2nnc(C(C)C)n2n1" was 10 to 100 nM

Lab note: measured IC50 of "CC(C)c1nnc2c(NCc3ccccc3)cc(Nc3nccn3C)nn12" was 100 to 1000 nM

Lab note: measured IC50 of "CCC(CC)Nc1cc(NCc2ccccn2)c2nnc(CC(C)C)n2n1" was 10 to 100 nM

Lab note: measured IC50 of "CC(C)c1nnc2c(NCc3ccccc3)cc(NCCOc3ccccc3)nn12" was 100 to 1000 nM

Lab note: measured IC50 of "COCCCNc1cc(NCc2ccccc2)c2nnc(-c3ccccc3)n2n1" was 100 to 1000 nM

Lab note: measured IC50 of "CCC(CC)Nc1cc(Nc2ncccn2)c2nnc(C(C)C)n2n1" was 10 to 100 nM

Lab note: measured IC50 of "CC(C)c1nnc2c(NCc3ccccc3)cc(NCc3cccnc3)nn12" was 10 to 100 nM

Lab note: measured IC50 of "CCC(CC)Nc1cc(NCc2ccccn2)c2nnc(C(CC)CC)n2n1" was 1 to 10 nM

Lab note: measured IC50 of "CCC(CC)Nc1cc(Nc2cc(OC)cnn2)c2nnc(C(C)C)n2n1" was < 1 nM

Lab note: measured IC50 of "CC(C)c1nnc2c(NCc3ccc(Br)cc3)cc(N[C@H](CO)[C@@H](C)O)nn12" was 100 to 1000 nM

Lab note: measured IC50 of "CCC(CC)Nc1cc(NCc2ccccn2)c2nnc(C3CCCCC3)n2n1" was 100 to 1000 nM

Lab note: measured IC50 of "CCNc1cc(NCc2ccccn2)c2nnc(C3CC3)n2n1" was 10 to 100 nM

Lab note: measured IC50 of "c1ccc(CNc2cc(NCc3ccsc3)nn3c(C4CC4)nnc23)nc1" was 1 to 10 nM

Lab note: measured IC50 of "CCC(CC)Nc1cc(Nc2cncnc2)c2nnc(C3CC3)n2n1" was < 1 nM

Lab note: measured IC50 of "CC[C@@H](CO)Nc1cc(NCc2ccccc2)c2nnc(C(C)C)n2n1" was 10 to 100 nM

Lab note: measured IC50 of "CC[C@@H](CO)Nc1cc(NCc2ccc(-c3ccncc3)cc2)c2nnc(C(C)C)n2n1" was 10 to 100 nM

Lab note: measured IC50 of "CCC(CC)CNc1cc(NCc2ccccc2)c2nnc(C(C)C)n2n1" was 1 to 10 nM

Lab note: measured IC50 of "CCC(CC)CNc1cc(Nc2cccnn2)c2nnc(C(C)C)n2n1" was < 1 nM

Lab note: measured IC50 of "CCC(CC)Nc1cc(Nc2cccnc2OC)c2nnc(C(C)C)n2n1" was < 1 nM

Lab note: measured IC50 of "CCC(CC)Nc1cc(NCc2ncccn2)c2nnc(C(C)C)n2n1" was 10 to 100 nM
